measurement.target: biotinylated His-Avi-TEAD (194-411) (UniProt P28347)
procedure.summary: SPR (Biacore T100, 25 C), captured biotinylated TEAD, peptide as analyte, single cycle kinetics
assay.readout: pKd
Please note pKd is a logarithmic value: minus log10 of concentration in mol/L. Answer with that number alone.

INPUT: Look up and state reported pKd for GSPDEYIERAKECCKKQDIQCCLRIFDESGDPNVMLICLFCW (designed binder) [peptide of SEQ ID NO: 10]
OUTPUT: 9.43
